Property: pIC50; scope: individual compounds
Biological target: SIK2 (Homo sapiens (Human))
Sequence (Q9H0K1 whole entry, species assumed): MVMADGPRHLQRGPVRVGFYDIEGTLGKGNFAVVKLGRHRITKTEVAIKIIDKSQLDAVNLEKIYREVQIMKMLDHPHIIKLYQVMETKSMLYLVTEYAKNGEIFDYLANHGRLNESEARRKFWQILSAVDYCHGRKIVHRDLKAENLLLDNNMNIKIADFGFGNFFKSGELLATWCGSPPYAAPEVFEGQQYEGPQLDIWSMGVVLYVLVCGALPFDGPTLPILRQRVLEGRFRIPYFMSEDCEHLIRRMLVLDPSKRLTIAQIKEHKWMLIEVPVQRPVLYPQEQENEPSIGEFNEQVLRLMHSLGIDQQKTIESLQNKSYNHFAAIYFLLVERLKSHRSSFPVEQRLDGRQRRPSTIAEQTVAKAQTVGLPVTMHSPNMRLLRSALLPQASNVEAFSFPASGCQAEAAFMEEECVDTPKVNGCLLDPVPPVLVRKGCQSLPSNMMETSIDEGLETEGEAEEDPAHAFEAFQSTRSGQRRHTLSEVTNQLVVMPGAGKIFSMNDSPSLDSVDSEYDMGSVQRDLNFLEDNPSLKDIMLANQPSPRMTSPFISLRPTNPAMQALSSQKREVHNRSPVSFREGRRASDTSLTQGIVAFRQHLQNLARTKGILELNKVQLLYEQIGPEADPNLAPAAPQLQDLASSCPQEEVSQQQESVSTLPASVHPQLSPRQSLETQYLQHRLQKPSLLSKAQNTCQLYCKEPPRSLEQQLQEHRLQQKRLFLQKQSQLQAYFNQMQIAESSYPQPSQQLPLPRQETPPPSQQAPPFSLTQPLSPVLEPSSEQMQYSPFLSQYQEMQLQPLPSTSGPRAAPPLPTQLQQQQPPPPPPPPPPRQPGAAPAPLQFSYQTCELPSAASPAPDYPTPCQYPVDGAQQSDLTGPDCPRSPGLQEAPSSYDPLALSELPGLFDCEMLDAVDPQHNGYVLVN
Experiment: SIK2 Enzymatic Assay Version 2 (High ATP)
Type: biochemical
Settings: 3 mM ATP and 200 μM HDAC5tide final, ADP-Glo Max luminescence
Just so you know, pIC50 here is -log10 of the concentration in molar units; reply with that number alone.

IN: Could you share which pIC50 value was measured for CN1CC[C@@H]1COc1cnn(C)c1-c1ccn2nc(N)cc2c1 [Example 503] ?
OUT: 6.35

IN: Please report the recorded pIC50 for [2H]C([2H])([2H])N1CCC[C@@H]1COc1cnn(C)c1-c1ccn2nc(NC(=O)C3CC3)cc2c1 [Example 249] .
OUT: 7.59

IN: Quick one: pIC50 of CCN1CC[C@@H]1COc1cnn(C)c1-c1ccn2nc(Nc3cc(C)ncn3)cc2c1 [Example 19] ?
OUT: 8.92

Ref: patent US20240174662A1
